# Tested on: mESC Bmi1-luciferase reporter, firefly/renilla ratio, 24 h
# assay: compounds raising Bmi1 reporter signal – mouse embryonic stem cells, luciferase, cherry-pick, esBAF inhibitor project, dose response (AID 651717);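 further: luciferase knocked into Bmi1 locus with EF-1a renilla as cell number control; rising ratio signals esBAF inhibition which derepresses Bmi1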
recorded endpoint: AC40

| smi | AC40 |
| --- | --- |
| CO[C@H]1CN(C)C(=O)c2cc(NC(=O)NC(C)C)ccc2OC[C@H](C)N(Cc2ccc(-c3ccccn3)cc2)C[C@@H]1C | 0.871 µM |
| Oc1cccc(C=NNc2ccccn2)c1 | 5.37 µM |
| COC(=O)Cc1csc(Nc2ccccc2Cl)n1 | 6.92 µM |
| COc1ccc2nc3ccccc3[n+]([O-])c2c1 | 2.1 µM |
| CCN(C(=O)c1cccs1)c1nnc(-c2ccncc2)s1 | 1.05 µM |

For the next question, use this compound.
Task: # get_value(readout='AC40', item= COc1ccc(CCn2nnc3ccccc3c2=O)cc1OC )
Output: 4.92 µM

---

Documented AC40 across a set of molecules
# System: mESC Bmi1-luciferase reporter, firefly/renilla ratio, 24 h
# assay: compounds raising Bmi1 reporter signal – mouse embryonic stem cells, luciferase, cherry-pick, esBAF inhibitor project, dose response (AID 651717)

Record excerpt, results attached:
| smi | study target | AC40 |
| --- | --- | --- |
| CC(=O)c1cccc(OCc2cc(C(=O)NCCC3=CCCCC3)no2)c1 | mESC Bmi1-luciferase reporter, firefly/renilla ratio, 24 h | 1230 nM |
| O=C(Nc1cccnc1Cl)c1cc(-c2ccccc2O)on1 | mESC Bmi1-luciferase reporter, firefly/renilla ratio, 24 h | 1090 nM |
| CN(C)c1ccc(N=Cc2nc(-c3ccccc3)oc2OC(=O)c2cccc(Br)c2)cc1 | mESC Bmi1-luciferase reporter, firefly/renilla ratio, 24 h | 1200 nM |
| O=C(N/N=C/c1ccccc1)c1ccc(NC(=O)c2ccc(F)cc2)cc1 | mESC Bmi1-luciferase reporter, firefly/renilla ratio, 24 h | 1460 nM |
| Cn1cccc1C(=O)OCc1ccc(C(C)(C)C)cc1 | mESC Bmi1-luciferase reporter, firefly/renilla ratio, 24 h | 4640 nM |

For the next question, use this molecule.
Task: # get_value(readout='AC40', item= CCN(C(=O)c1cc2c(=O)n3ccccc3nc2s1)C1CCCCC1 )
Output: 14000 nM

---

# Test system: mESC Bmi1-luciferase reporter, firefly/renilla ratio, 24 h
# assay: compounds raising Bmi1 reporter signal – mouse embryonic stem cells, luciferase, cherry-pick, esBAF inhibitor project, dose response (AID 651717)
recorded endpoint: AC40

Task: # get_value(readout='AC40', item= Cc1csc(-c2ccc3cc(Cl)cc(Cl)c3n2)n1 )
Output: 5.82 µM

Task: # get_value(readout='AC40', item= CC(C)c1ccc(NC(=O)c2ccc3snnc3c2)cc1 )
Output: 3.23 µM

---

# Tested on: mESC Bmi1-luciferase reporter, firefly/renilla ratio, 24 h
# assay: compounds raising Bmi1 reporter signal – mouse embryonic stem cells, luciferase, cherry-pick, esBAF inhibitor project, dose response (AID 651717)
recorded endpoint: AC40

Record excerpt, results attached:
| smi | study target | AC40 |
| --- | --- | --- |
| CCSc1ccc(/C(N)=N/OC(=O)c2cccs2)cn1 | mESC Bmi1-luciferase reporter, firefly/renilla ratio, 24 h | 8.66 µM |
| Cc1ccc(C(=O)CNc2ccccc2)cc1 | mESC Bmi1-luciferase reporter, firefly/renilla ratio, 24 h | 16.6 µM |
| CO[C@@H]1CN(C)C(=O)c2cc(NC(=O)c3nc4ccccc4s3)ccc2OC[C@@H](C)N(Cc2cccnc2)C[C@H]1C | mESC Bmi1-luciferase reporter, firefly/renilla ratio, 24 h | 19.8 µM |
| Cc1ccc2c3c([nH]c2c1C)-c1nonc1CC3 | mESC Bmi1-luciferase reporter, firefly/renilla ratio, 24 h | 4.53 µM |
| Cc1cc(-c2nnco2)c(C)n1-c1ccccc1 | mESC Bmi1-luciferase reporter, firefly/renilla ratio, 24 h | 6.01 µM |

Task: Which measured AC40 belongs to COC(=O)c1sc(Nc2ccccc2)nc1C , tested on mESC Bmi1-luciferase reporter, firefly/renilla ratio, 24 h?
Output: 4.18 µM

Task: Which measured AC40 belongs to O=C(CCN1C(=O)/C(=C/C=C/c2ccccc2)SC1=S)Nc1cccnc1 , tested on mESC Bmi1-luciferase reporter, firefly/renilla ratio, 24 h?
Output: 2.35 µM

Task: Which measured AC40 belongs to COc1ccc(/C=N/OCc2ccccc2C#N)c(OC)c1 , tested on mESC Bmi1-luciferase reporter, firefly/renilla ratio, 24 h?
Output: 6.27 µM

Task: Which measured AC40 belongs to O=C1C(=C2CCc3ccccc32)Cc2ccccc21 , tested on mESC Bmi1-luciferase reporter, firefly/renilla ratio, 24 h?
Output: 0.363 µM

Task: Which measured AC40 belongs to COc1ccccc1CNC(=O)C[C@H]1CC[C@@H]2[C@H](COC[C@H](O)CN2C(=O)Nc2ccc(Cl)cc2)O1 , tested on mESC Bmi1-luciferase reporter, firefly/renilla ratio, 24 h?
Output: 14.1 µM

Task: Which measured AC40 belongs to COc1ccc(C(=O)CNc2cccc(F)c2)cc1 , tested on mESC Bmi1-luciferase reporter, firefly/renilla ratio, 24 h?
Output: 16.4 µM

---

# Test system: mESC Bmi1-luciferase reporter, firefly/renilla ratio, 24 h
# assay: compounds raising Bmi1 reporter signal – mouse embryonic stem cells, luciferase, cherry-pick, esBAF inhibitor project, dose response (AID 651717);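 further: luciferase knocked into Bmi1 locus with EF-1a renilla as cell number control; rising ratio signals esBAF inhibition which derepresses Bmi1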
Documented AC40 across a set of molecules

Record excerpt, results attached:
| molecule | AC40 |
| --- | --- |
| CCn1c(O)c(/C=C2\C=Nc3ccccc32)sc1=Nc1ccccc1 | 14.2 µM |
| Cc1cc(F)ccc1-c1cc(C(=O)NC2CCCCC2)[nH]n1 | 9.06 µM |
| CCCCNC(=O)CSc1nc2ccc(N3CCOCC3)cc2c(=O)n1Cc1ccc(OC)cc1 | 11 µM |

Task: # get_value(readout='AC40', item= Nc1cc(OCc2ccccc2)ccc1OCc1ccccc1 )
Output: 5.17 µM

Task: # get_value(readout='AC40', item= Cc1noc(C)c1COC(=O)c1cc(C)n(-c2ccccc2)c1C )
Output: 10 µM

Task: # get_value(readout='AC40', item= CC(NC(=O)c1cc(COc2cccc(C(F)(F)F)c2)on1)c1nccs1 (stereo unspecified) )
Output: 6.45 µM

Task: # get_value(readout='AC40', item= CC(=O)Nc1ccc(NC(=O)c2cccc(-c3cc4ccccc4oc3=O)c2)cc1 )
Output: 9.75 µM

---

# System: mESC Bmi1-luciferase reporter, firefly/renilla ratio, 24 h
# assay: compounds raising Bmi1 reporter signal – mouse embryonic stem cells, luciferase, cherry-pick, esBAF inhibitor project, dose response (AID 651717);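 further: luciferase knocked into Bmi1 locus with EF-1a renilla as cell number control; rising ratio signals esBAF inhibition which derepresses Bmi1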
recorded endpoint: AC40

Record excerpt, results attached:
| molecule | AC40 |
| --- | --- |
| CC1CCCN(C(=O)CNC(=O)c2sc3ccccc3c2Cl)C1 (stereo not drawn) | 3.96 µM |
| COc1ccc2[nH]c(=O)c(CNc3cccc(C)c3)cc2c1 | 12.9 µM |
| CC(=O)Nc1ccc(CNc2nc3cc(-c4ccsc4)sc3c(=O)n2C)cc1 | 6.16 µM |
| COc1ccc(-c2cc(C(=O)N3CCN(c4ccccc4O)CC3)c3ccccc3n2)cc1 | 3.16 µM |
| Cc1ccc(C)c(OCc2cc(C(=O)N3CC[C@@H]4CCCC[C@H]4C3)no2)c1 | 7.9 µM |

Task: # get_value(readout='AC40', item= CCCCN1C(=S)NC[C@@H]1Cc1cccc2ccccc12 )
Output: 17.3 µM

Task: # get_value(readout='AC40', item= Fc1cccc(-c2ncc(-c3ccccc3)o2)c1 )
Output: 0.768 µM

Task: # get_value(readout='AC40', item= CN(CCc1ccccn1)C(=O)CCc1nnc(CCCc2ccccc2)o1 )
Output: 4.93 µM

---

# Tested on: mESC Bmi1-luciferase reporter, firefly/renilla ratio, 24 h
# assay: compounds raising Bmi1 reporter signal – mouse embryonic stem cells, luciferase, cherry-pick, esBAF inhibitor project, dose response (AID 651717);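 further: luciferase knocked into Bmi1 locus with EF-1a renilla as cell number control; rising ratio signals esBAF inhibition which derepresses Bmi1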
recorded endpoint: AC40

Record excerpt, results attached:
| compound | study target | AC40 |
| --- | --- | --- |
| CC(C)CN1C(=O)c2ccc(NC(=O)c3cccs3)cc2C1=O | mESC Bmi1-luciferase reporter, firefly/renilla ratio, 24 h | 3.84 µM |
| Cc1ccc2c(COC(=O)C34CC5CC(CC(C5)C3)C4)cc(=O)oc2c1 | mESC Bmi1-luciferase reporter, firefly/renilla ratio, 24 h | 3.95 µM |
| Cc1ccc(NC(=O)Nc2ccc(F)cc2)cc1Cl | mESC Bmi1-luciferase reporter, firefly/renilla ratio, 24 h | 3.4 µM |
| C=CCNc1nc(Cl)nc(Nc2ccccc2)n1 | mESC Bmi1-luciferase reporter, firefly/renilla ratio, 24 h | 0.936 µM |
| COc1ccc(OCc2cc(C(=O)NC(C)c3csc(C)n3)no2)c(Cl)c1 (centres undefined) | mESC Bmi1-luciferase reporter, firefly/renilla ratio, 24 h | 4.18 µM |
| Clc1ccc(-c2cnnc(-c3ccccn3)n2)cc1 | mESC Bmi1-luciferase reporter, firefly/renilla ratio, 24 h | 1.79 µM |
| O=C(CCc1ccccc1)Nc1ccc(F)cc1F | mESC Bmi1-luciferase reporter, firefly/renilla ratio, 24 h | 7.22 µM |
| O=C1c2ccccc2CN1c1ccccc1 | mESC Bmi1-luciferase reporter, firefly/renilla ratio, 24 h | 3.89 µM |

For the next question, use this compound.
Task: # get_value(readout='AC40', item= C1=NN(c2ccccc2)C=NN1c1ccccc1 )
Output: 1.17 µM
